tested-on: human serotonin transporters (Homo sapiens, UniProt P31645)
Construct: expressed in transfected cells
Sequence (P31645 whole entry): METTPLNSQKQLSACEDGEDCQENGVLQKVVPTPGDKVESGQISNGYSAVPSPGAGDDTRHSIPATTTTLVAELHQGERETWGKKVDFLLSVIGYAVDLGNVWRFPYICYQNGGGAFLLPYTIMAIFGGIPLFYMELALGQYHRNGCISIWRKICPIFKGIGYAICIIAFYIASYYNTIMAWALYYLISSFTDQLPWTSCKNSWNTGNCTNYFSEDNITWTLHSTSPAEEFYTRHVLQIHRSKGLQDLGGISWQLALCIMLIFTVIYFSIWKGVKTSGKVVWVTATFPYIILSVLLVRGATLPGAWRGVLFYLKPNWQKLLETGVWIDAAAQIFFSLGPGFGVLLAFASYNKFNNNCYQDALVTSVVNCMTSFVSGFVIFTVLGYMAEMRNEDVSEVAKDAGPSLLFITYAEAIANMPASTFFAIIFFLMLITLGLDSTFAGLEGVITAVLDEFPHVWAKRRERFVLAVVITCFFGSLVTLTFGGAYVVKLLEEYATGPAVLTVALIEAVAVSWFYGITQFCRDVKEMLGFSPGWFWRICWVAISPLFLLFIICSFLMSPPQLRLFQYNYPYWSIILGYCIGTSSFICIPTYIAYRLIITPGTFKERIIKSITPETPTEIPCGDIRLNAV
procedure-summary: Serotonin transporter binding assay ([3H]-citalopram competition, HEK-hSERT cell membranes)
setup-conditions: Table 1; HEK-hSERT membranes, [3H]-citalopram displacement; read-out: SERT IC50
pIC50: −log10 of the molar value.

| structure-smiles-string | pIC50 |
| --- | --- |
| FC(F)(F)c1cc(COCC2(c3ccccc3)CCNCC2)cc(-c2cccc3c2oc2ccccc23)c1 | 7.00 to 11.00 |
| Fc1cc(-c2cc(COCC3(c4ccccc4)CCNCC3)cc(C(F)(F)F)c2)ccc1-c1ccccc1 | 7.00 to 11.00 |
| Fc1ccc(-c2cc(COCC3(c4ccccc4)CCNCC3)cc(C(F)(F)F)c2)cc1Cl | 7.00 to 11.00 |
| Fc1ncccc1-c1cc(COCC2(c3ccccc3)CCNCC2)cc(C(F)(F)F)c1 | 7.00 to 11.00 |
| Fc1cccc(F)c1-c1cc(COCC2(c3ccccc3)CCNCC2)cc(C(F)(F)F)c1 | 7.00 to 11.00 |
| FC(F)(F)c1cc(COCC2(c3ccccc3)CCNCC2)cc(-c2cccc3ccccc23)c1 | 6.52 to 7.00 |
| N#Cc1cccc(-c2cc(COCC3(c4ccccc4)CCNCC3)cc(C(F)(F)F)c2)c1 | 7.00 to 11.00 |
| COc1c(C)cc(-c2cc(COCC3(c4ccccc4)CCNCC3)cc(C(F)(F)F)c2)cc1C | 6.52 to 7.00 |
| Cc1ccccc1-c1cc(COCC2(c3ccccc3)CCNCC2)cc(C(F)(F)F)c1 | 7.00 to 11.00 |

----------
tested-on: human serotonin transporters (Homo sapiens, UniProt P31645)
Construct: expressed in transfected cells
procedure-summary: Serotonin transporter binding assay ([3H]-citalopram competition, HEK-hSERT cell membranes)
setup-conditions: Table 2; HEK-hSERT membranes, [3H]-citalopram displacement; read-out: SERT IC50
pIC50: −log10 of the molar value.

| molecule | pIC50 |
| --- | --- |
| N#Cc1ccc(-c2cc(COCC3(c4cccc(Br)c4)CCNCC3)cc(C(F)(F)F)c2)cc1 | 7.00 to 11.00 |
| COc1cccc(-c2cc(COCC3(c4ccccc4)CCNCC3)cc(C(F)(F)F)c2)c1OC | 6.52 to 7.00 |
| COc1ccc(-c2cc(COCC3(c4ccccc4)CCNCC3)cc(C(F)(F)F)c2)cc1C | 7.00 to 11.00 |
| N#Cc1ccc(-c2cc(F)cc(COCC3(c4ccccc4)CCNCC3)c2)cc1 | 7.00 to 11.00 |
| N#Cc1c(F)cc(-c2cc(COCC3(c4ccccc4)CCNCC3)cc(C(F)(F)F)c2)cc1F | 7.00 to 11.00 |
| N#Cc1ccc(-c2cc(COCC3(c4ccccc4)CCNCC3)cc(C(F)(F)F)c2)nc1 | 7.00 to 11.00 |
| COc1ccc(-c2cc(COCC3(c4ccccc4)CCNCC3)cc(C(F)(F)F)c2)c(F)c1F | 7.00 to 11.00 |
| CCS(=O)(=O)c1ccc(-c2cc(COCC3(c4ccccc4)CCNCC3)cc(C(F)(F)F)c2)cc1 | 7.00 to 11.00 |
| CC(=O)c1ccccc1-c1cc(COCC2(c3ccccc3)CCNCC2)cc(C(F)(F)F)c1 | 6.52 to 7.00 |
| CC(OCC1(c2ccccc2)CCNCC1)c1cc(Cl)cc(-c2ccc(C#N)cc2)c1 (stereo not shown) | 7.00 to 11.00 |
| N#Cc1ccc(-c2cc(COCC3(c4ccc(F)cc4Br)CCNCC3)cc(C(F)(F)F)c2)cc1 | 7.00 to 11.00 |
| COc1cc(F)c(-c2cc(COCC3(c4ccccc4)CCNCC3)cc(C(F)(F)F)c2)cc1F | 7.00 to 11.00 |
| Fc1cccc(-c2cc(COCC3(c4ccccc4)CCNCC3)cc(C(F)(F)F)c2)c1F | 7.00 to 11.00 |
| O=C(Nc1ccc(-c2cc(COCC3(c4ccccc4)CCNCC3)cc(C(F)(F)F)c2)cc1)OCc1ccccc1 | 7.00 to 11.00 |
| FC(F)(F)c1cc(COCC2(c3ccccc3)CCNCC2)cc(-c2ccc(C3CCNCC3)nc2)c1 | 7.00 to 11.00 |
| COC(=O)c1cc(-c2cc(COCC3(c4ccccc4)CCNCC3)cc(C(F)(F)F)c2)cc([N+](=O)[O-])c1 | 7.00 to 11.00 |
| CCc1ccccc1-c1cc(COCC2(c3ccccc3)CCNCC2)cc(C(F)(F)F)c1 | 7.00 to 11.00 |
| N#Cc1ccc(-c2cc(Cl)cc(COCC3(c4ccccc4)CCNCC3)c2)cc1 | 7.00 to 11.00 |
| Cc1ccc(C)c(-c2cc(COCC3(c4ccccc4)CCNCC3)cc(C(F)(F)F)c2)c1 | 7.00 to 11.00 |
| COc1cc(-c2cc(COCC3(c4ccccc4)CCNCC3)cc(C(F)(F)F)c2)ccc1O | 7.00 to 11.00 |
| CC(OCC1(c2ccccc2)CCNCC1)c1cc(F)cc(-c2ccc(C#N)cc2)c1 (stereo not shown) | 7.00 to 11.00 |
| Fc1ccc(F)c(-c2cc(COCC3(c4ccccc4)CCNCC3)cc(C(F)(F)F)c2)c1 | 7.00 to 11.00 |
| CCOc1ccc2cc(-c3cc(COCC4(c5ccccc5)CCNCC4)cc(C(F)(F)F)c3)ccc2c1 | 7.00 to 11.00 |
| COc1ccc(-c2cc(COCC3(c4ccccc4)CCNCC3)cc(C(F)(F)F)c2)nn1 | 7.00 to 11.00 |
| FC(F)(F)c1cc(COCC2(c3ccccc3)CCNCC2)cc(-c2ccc(C3CCCCC3)cc2)c1 | 6.52 to 7.00 |
| Cc1cc(COCC2(c3ccccc3)CCNCC2)cc(-c2ccc(C#N)cc2)c1 | 7.00 to 11.00 |
| FC(F)(F)c1cc(COCC2(c3ccccc3)CCNCC2)cc(-c2cccc(OCc3ccccc3)c2)c1 | 7.00 to 11.00 |
| N#Cc1ccc(-c2cc(COCC3(c4ccccc4)CCN(Cc4ccccc4)CC3)cc(C(F)(F)F)c2)cc1 | < 6.52 |
| COC(=O)c1ccc(-c2cc(COCC3(c4ccccc4)CCNCC3)cc(C(F)(F)F)c2)cc1 | 7.00 to 11.00 |
| N#Cc1ccc(-c2cc(COCC3(c4ccc(F)c(F)c4)CCNCC3)cc(C(F)(F)F)c2)cc1 | 7.00 to 11.00 |
| COc1ccc2cc(-c3cc(COCC4(c5ccccc5)CCNCC4)cc(C(F)(F)F)c3)ccc2c1 | 7.00 to 11.00 |
| N#Cc1ccc(-c2cc(COCC3(c4ccc(F)cc4C#N)CCNCC3)cc(C(F)(F)F)c2)cc1 | 7.00 to 11.00 |
| CC(C)Cc1ccc(-c2cc(COCC3(c4ccccc4)CCNCC3)cc(C(F)(F)F)c2)cc1 | 6.52 to 7.00 |
| N#Cc1ccc(-c2cc(COCC3(c4ccccc4)CCNCC3)cc(C(=O)N3CCCCC3)c2)cc1 | 7.00 to 11.00 |
| FC(F)(F)c1cc(COCC2(c3ccccc3)CCNCC2)cc(-c2cnc(Cl)nc2)c1 | 7.00 to 11.00 |
| CCCOc1cccc(-c2cc(COCC3(c4ccccc4)CCNCC3)cc(C(F)(F)F)c2)c1 | 6.52 to 7.00 |
| COc1ccc(C)cc1-c1cc(COCC2(c3ccccc3)CCNCC2)cc(C(F)(F)F)c1 | 7.00 to 11.00 |
